- Test Target: T1, NHERF3_4, Q5T2W1
- T1 sequence (Q5T2W1 373-468, limits assumed, looked up): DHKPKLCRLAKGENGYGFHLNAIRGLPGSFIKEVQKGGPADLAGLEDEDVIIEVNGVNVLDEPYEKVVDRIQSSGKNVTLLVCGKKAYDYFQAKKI
- Test Protocol: holdup assay
- Parameters: key: below the threshold = too weak to quantify, mostly under pKd 3.1 to 4
- Stated Conditions: plain residues with an end cap or a label only (N-terminal biotin on a linker: ado-ado)
Recorded Metric: pKd

Binder | Recorded Metric | Reported Value
YAEKRMLTEV [KCNA6, P17658] | pKd | below the threshold
VISSDDLTEL [CAPN6, Q9Y6Q1] | pKd | below the threshold
TKDKVQETQI [LRRC4, Q9HBW1] | pKd | 3.57
EFKQTSSFLV [JAM1, Q9Y624] | pKd | 3.51
ATKDKKITTV [EXOC4, Q96A65] | pKd | below the threshold
LPPPESESKV [KCNJ9, Q92806] | pKd | below the threshold
SAGADSETHC [SLCO1B1, Q9Y6L6] | pKd | below the threshold
AHGSTRDQSI [KCNB1, Q14721] | pKd | below the threshold
HLSTRQGTCV [ATRNL1, Q5VV63] | pKd | below the threshold
